# System tested: T1, ActRIIB-Fc homodimer (UniProt Q13705 19-137)
# T1 construct: extracellular domain; also called ActRIIB homodimer
# T1 sequence (looked up): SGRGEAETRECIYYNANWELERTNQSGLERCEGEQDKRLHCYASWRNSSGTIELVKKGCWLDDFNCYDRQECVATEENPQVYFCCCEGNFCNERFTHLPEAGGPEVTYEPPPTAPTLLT
# Protocol summary: Biacore SPR
Measured quantity: kon (M⁻¹ s⁻¹)
Just the number please, in M⁻¹ s⁻¹, no unit attached.

**Q:** Look up kon of GDF3 (ligand, UniProt Q9NR23 251-364, looked up) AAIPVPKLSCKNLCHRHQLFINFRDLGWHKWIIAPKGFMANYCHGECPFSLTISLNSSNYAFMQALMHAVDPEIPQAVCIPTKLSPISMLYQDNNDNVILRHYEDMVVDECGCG and report it.
**A:** 470000

**Q:** Return reported kon. Input binder: BMP9 (ligand, UniProt Q9UK05 320-429, looked up, also called GDF2) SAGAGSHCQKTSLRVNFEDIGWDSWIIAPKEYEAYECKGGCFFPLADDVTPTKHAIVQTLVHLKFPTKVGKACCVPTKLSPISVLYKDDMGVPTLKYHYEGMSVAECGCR
**A:** 3.9e+07

**Q:** Answer with reported kon of activin A (ligand, UniProt P08476 311-426, looked up) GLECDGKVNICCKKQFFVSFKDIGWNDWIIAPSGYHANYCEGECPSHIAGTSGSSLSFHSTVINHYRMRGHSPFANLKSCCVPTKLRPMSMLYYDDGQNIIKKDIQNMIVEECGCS
**A:** 1.2e+07

**Q:** Output measured kon for this item: BMP10 (ligand, UniProt O95393 317-424, looked up) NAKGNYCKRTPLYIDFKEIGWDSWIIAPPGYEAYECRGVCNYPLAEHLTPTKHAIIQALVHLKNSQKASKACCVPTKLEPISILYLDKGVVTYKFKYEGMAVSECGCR
**A:** 2.1e+07

Every entry's value here was drawn from patent US20190225669A1.
